# key: entry, value: shrunken log2 fold change
# Tested on: Escherichia coli TOP10;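 further: peptides expressed intracellularly from a pBAD plasmid library in pooled LB shake-flask culture, induced with 0.3% L-arabinose, DNA abundance read by NGS, three biological replicates, DESeq2 with apeglm shrinkage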
# run-description: shrunken log2 fold change of peptide-encoding DNA abundance (4.5 h post-induction vs induction); higher = less antimicrobial activity (less host growth inhibition)
# settings: time post-induction: 4.5 h; library: site-saturation at positions 5, 18, 19, 20
API note: the answer field is a bare number with no unit suffix.

Worked cases, answers included:
input-sequence: RRIRFRPPRLPRPRPRPIIFPRP
assay-readout: shrunken log2 fold change
reported: -0.621
--
input-sequence: RRIRSRPPRLPRPRPRPWPCPRP
assay-readout: shrunken log2 fold change
reported: 0.134
--
input-sequence: RRIRNRPPRLPRPRPRPHFCPRP
assay-readout: shrunken log2 fold change
reported: -0.144
--
input-sequence: RRIRIRPPRLPRPRPRPTRIPRP
assay-readout: shrunken log2 fold change
reported: 0.0411
--
input-sequence: RRIRARPPRLPRPRPRPCAKPRP
assay-readout: shrunken log2 fold change
reported: 0.984

Which shrunken log2 fold change is reported with Escherichia coli TOP10 for this entry: RRIRDRPPRLPRPRPRPKSPPRP ? 0.0198

Which shrunken log2 fold change is reported with Escherichia coli TOP10 for this entry: RRIRHRPPRLPRPRPRPGLPPRP ? 0.118

Which shrunken log2 fold change is reported with Escherichia coli TOP10 for this entry: RRIRFRPPRLPRPRPRPLFIPRP ? -0.652
